experimental-system: Kappa-type opioid receptor (Cavia porcellus, UniProt P41144)
Sequence (P41144 whole entry): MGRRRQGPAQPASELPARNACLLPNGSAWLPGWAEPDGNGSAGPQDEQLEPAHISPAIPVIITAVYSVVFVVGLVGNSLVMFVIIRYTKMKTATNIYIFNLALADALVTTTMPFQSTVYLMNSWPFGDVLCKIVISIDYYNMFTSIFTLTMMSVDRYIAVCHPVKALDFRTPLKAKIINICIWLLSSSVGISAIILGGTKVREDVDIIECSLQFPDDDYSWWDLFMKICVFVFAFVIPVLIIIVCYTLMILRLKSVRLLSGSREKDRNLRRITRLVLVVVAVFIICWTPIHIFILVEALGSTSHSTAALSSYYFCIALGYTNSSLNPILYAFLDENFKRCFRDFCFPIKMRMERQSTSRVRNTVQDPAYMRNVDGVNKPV
measure: pKi
Scale: negative log10 of molar concentration, which is what pKi denotes.

See these solved cases before continuing.
- Cc1ccc(C(C(=O)N(C)[C@H](CN2CC[C@H](O)C2)c2ccccc2)c2ccc(C)cc2)cc1: 7.70
- CN(C(=O)C1c2ccccc2CCc2ccccc21)[C@H](CN1CC[C@H](O)C1)c1ccccc1: 7.70

Data request, read-out pKi, for CN(C(=O)C(c1ccccc1)c1ccccc1)[C@H](CN1CC[C@H](O)C1)c1cccc([N+](=O)[O-])c1 7.70
